- System: SMN2 minigene mRNA (SMN2-A minigene) in HEK293H cells
- Assay Info: SMN2 minigene mRNA splicing RT-qPCR assay in cultured cells
- Type: cell-based, human
- Assay Conditions: Homo sapiens, HEK293-H; concentration increasing full length SMN2 mRNA 1.5-fold relative to vehicle-treated cells; HEK293H cells with SMN2-A minigene, 24 hours, 7-point concentration data; read-out: EC1.5x for production of full length SMN2 mRNA
Property Measured: EC (1.5-fold increase)

- Compound: "CCc1nc(C)cn2nc(-c3cc(=O)n4cc(N5CCN(CC)CC5)ccc4n3)cc12"
  Property Measured: "EC (1.5-fold increase)"
  Recorded Result: "< 0.1 µM"
- Compound: "Cc1cn2nc(-c3cc(=O)n4cc(N5CCN(CCOCCO)[C@H](C)C5)cc(C)c4n3)cc2c(C)n1"
  Property Measured: "EC (1.5-fold increase)"
  Recorded Result: "< 0.1 µM"
- Compound: "Cc1cc(C2CCN(C3CC3)CC2)cn2c(=O)cc(-c3ccc4nn(C)cc4c3)nc12"
  Property Measured: "EC (1.5-fold increase)"
  Recorded Result: "< 0.1 µM"
- Compound: "COc1ccc(-c2cc(=O)n3cc(OC4CCN(C)CC4)ccc3n2)cc1OC"
  Property Measured: "EC (1.5-fold increase)"
  Recorded Result: "0.3 to 1 µM"
- Compound: "Cc1cc2cc(-c3cc(=O)n4cc(N5C[C@@H](C)N[C@@H](C)C5)ccc4n3)oc2c(C)n1"
  Property Measured: "EC (1.5-fold increase)"
  Recorded Result: "< 0.1 µM"
- Compound: "CNCCNc1ccc2nc(-c3ccc(OC)c(OC)c3)cc(=O)n2c1"
  Property Measured: "EC (1.5-fold increase)"
  Recorded Result: "1 to 3 µM"
- Compound: "Cc1cc2cc(-c3cc(=O)n4cc(N5CCC(N(C)C)CC5)ccc4n3)oc2c(C)n1"
  Property Measured: "EC (1.5-fold increase)"
  Recorded Result: "< 0.1 µM"
- Compound: "CCc1cc(-c2cc(=O)n3cc(C4CCNCC4)ccc3n2)cn2cc(C)nc12"
  Property Measured: "EC (1.5-fold increase)"
  Recorded Result: "< 0.1 µM"
- Compound: "Cc1cn2nc(-c3cc(=O)n4cc(N5C[C@@H](C)N[C@@H](C)C5)ccc4n3)cc2c(C)n1"
  Property Measured: "EC (1.5-fold increase)"
  Recorded Result: "< 0.1 µM"
- Compound: "COc1ccc(-c2cc(=O)n3cc(C4CCNCC4)ccc3n2)cc1OC"
  Property Measured: "EC (1.5-fold increase)"
  Recorded Result: "< 0.1 µM"
- Compound: "Cc1cn2cc(-c3cc(=O)n4cc(C5CCNCC5)ncc4n3)ccc2n1"
  Property Measured: "EC (1.5-fold increase)"
  Recorded Result: "< 0.1 µM"
- Compound: "COc1ccc(-c2cc(=O)n3cc(N4CCC(NC(C)C)CC4)ccc3n2)cc1OC"
  Property Measured: "EC (1.5-fold increase)"
  Recorded Result: "0.1 to 0.3 µM"
- Compound: "O=c1cc(-c2ccc(F)cc2)nc2ccc(N3CCNCC3)cn12"
  Property Measured: "EC (1.5-fold increase)"
  Recorded Result: "1 to 3 µM"
- Compound: "COc1ccc(-c2cc(=O)n3cc(C4CCN(C)CC4)cc(C)c3n2)cc1OC"
  Property Measured: "EC (1.5-fold increase)"
  Recorded Result: "0.1 to 0.3 µM"
- Compound: "CCc1nc(C)cn2nc(-c3cc(=O)n4cc(N5CCN(C6CC6)CC5)ccc4n3)cc12"
  Property Measured: "EC (1.5-fold increase)"
  Recorded Result: "0.3 to 1 µM"
- Compound: "O=c1cc(-c2cccc(F)c2)nc2ccc(N3CCNCC3)cn12"
  Property Measured: "EC (1.5-fold increase)"
  Recorded Result: "0.3 to 1 µM"
- Compound: "COc1ccc(-c2cc(=O)n3cc(C4CCN(C)CC4)cc(C)c3n2)cc1F"
  Property Measured: "EC (1.5-fold increase)"
  Recorded Result: "< 0.1 µM"
- Compound: "Cc1cn2nc(-c3cc(=O)n4cc(N5CCN6CCC[C@@H]6C5)ccc4n3)cc2cn1"
  Property Measured: "EC (1.5-fold increase)"
  Recorded Result: "< 0.1 µM"
- Compound: "CCCN1CCN(c2ccc3nc(-c4ccc(OC)c(OC)c4)cc(=O)n3c2)CC1"
  Property Measured: "EC (1.5-fold increase)"
  Recorded Result: "1 to 3 µM"
- Compound: "Cc1cn2nc(-c3cc(=O)n4cc(N5CCNCC5)ccc4n3)cc2c(C2CC2)n1"
  Property Measured: "EC (1.5-fold increase)"
  Recorded Result: "< 0.1 µM"
- Compound: "COc1ccc(-c2cc(=O)n3cc(C4=CCN(C(C)C)CC4)ccc3n2)cc1OC"
  Property Measured: "EC (1.5-fold increase)"
  Recorded Result: "0.3 to 1 µM"
- Compound: "CCN(C)C1CC=C(c2ccc3nc(-c4ccc(OC)c(OC)c4)cc(=O)n3c2)CC1 (stereo not shown)"
  Property Measured: "EC (1.5-fold increase)"
  Recorded Result: "< 0.1 µM"
- Compound: "COc1ccc(-c2ccc3nc(N4CCC(N(C)C)CC4)cc(=O)n3c2)cc1F"
  Property Measured: "EC (1.5-fold increase)"
  Recorded Result: "0.3 to 1 µM"
- Compound: "COc1ccc(-c2cc(=O)n3cc(NC4CCNCC4)cc(F)c3n2)cc1OC"
  Property Measured: "EC (1.5-fold increase)"
  Recorded Result: "3 to 30 µM"
- Compound: "Cc1nc2ccc(-c3cc(=O)n4cc(N5CCN(C)CC5)ccc4n3)cn2n1"
  Property Measured: "EC (1.5-fold increase)"
  Recorded Result: "0.1 to 0.3 µM"
- Compound: "Cc1cc(C2CCNCC2)cn2c(=O)cc(-c3ccc4c(cnn4C)c3)nc12"
  Property Measured: "EC (1.5-fold increase)"
  Recorded Result: "< 0.1 µM"
- Compound: "Cc1cn2cc(-c3cc(=O)n4nc(C5CCNCC5)ccc4n3)ccc2n1"
  Property Measured: "EC (1.5-fold increase)"
  Recorded Result: "0.1 to 0.3 µM"
- Compound: "COc1ccc(-c2cc(=O)n3cc(N4CCC(N)CC4)ccc3n2)cc1F"
  Property Measured: "EC (1.5-fold increase)"
  Recorded Result: "< 0.1 µM"
- Compound: "COc1ccc(-c2cc(=O)n3cc(N4C[C@H]5CNC[C@H]5C4)cc(C)c3n2)cc1OC"
  Property Measured: "EC (1.5-fold increase)"
  Recorded Result: "< 0.1 µM"
- Compound: "COc1ccc(-c2cc(=O)n3cc(C4=CCNCC4)cc(C)c3n2)cc1OC"
  Property Measured: "EC (1.5-fold increase)"
  Recorded Result: "< 0.1 µM"
- Compound: "COc1ccc(-c2cc(=O)n3cc(N4CCNC(C)(C)C4)ccc3n2)cc1"
  Property Measured: "EC (1.5-fold increase)"
  Recorded Result: "1 to 3 µM"
- Compound: "COc1ccc(-c2cc(=O)n3cc(C4=CCN(C5CCC5)CC4)ccc3n2)cc1OC"
  Property Measured: "EC (1.5-fold increase)"
  Recorded Result: "0.3 to 1 µM"
- Compound: "CCN1CCN(c2cc(C)c3nc(-c4cc5c(C)nc(C)cn5n4)cc(=O)n3c2)CC1"
  Property Measured: "EC (1.5-fold increase)"
  Recorded Result: "< 0.1 µM"
- Compound: "CCN1CCC(c2ccc3nc(-c4cc(Cl)c5nc(C)cn5c4)cc(=O)n3c2)CC1"
  Property Measured: "EC (1.5-fold increase)"
  Recorded Result: "< 0.1 µM"
